Origin of values: paper PMC12274840

# studySystem: CTX-M-14 WT (Escherichia coli, UniProt Q9L5C7)
# Construct: 29 to 291 of CTX-M-14 (Q9L5C7); His tag with TEV cleavage site (N)
# Sequence (Q9L5C7 entry or part of it): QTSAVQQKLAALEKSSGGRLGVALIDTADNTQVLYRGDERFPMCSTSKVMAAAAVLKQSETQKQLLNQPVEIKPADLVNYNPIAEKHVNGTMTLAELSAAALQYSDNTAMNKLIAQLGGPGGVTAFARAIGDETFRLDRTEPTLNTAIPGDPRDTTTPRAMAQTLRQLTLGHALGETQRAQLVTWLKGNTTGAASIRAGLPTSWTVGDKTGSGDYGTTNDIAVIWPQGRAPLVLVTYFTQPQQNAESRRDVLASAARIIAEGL
# protocol: biochemical
measurementKind: Kd (µM)
Give the number; µM is assumed, so skip it.

Provide the documented Kd with CTX-M-14 WT (Escherichia coli, UniProt Q9L5C7) as the system for O=C(Cc1cccs1)N[C@@H]1C(=O)N2C(C(=O)O)=C(/C=C/c3ccc([N+](=O)[O-])cc3[N+](=O)[O-])CS[C@H]12 [nitrocefin]
50

###

# Test system: E. coli KA797 cells carrying CTX-M-14 position 105 library
# Type: cell-based
# conditions: CTX-M-14 WT (Tyr 105)
Recorded WT abs Fi 1 (absolute fitness of wild type, Replicate 1) for the following compounds
Form field (numeric): enter value without unit.

Illustrative cases are given below, each with its answer.
CO/N=C(\C(=O)N[C@@H]1C(=O)N2C(C(=O)O)=C(CSc3nc(=O)c(=O)[nH]n3C)CS[C@H]12)c1csc(N)n1 = 0.241
CC1(C)S[C@@H]2[C@H](NC(=O)C(C(=O)O)c3ccccc3)C(=O)N2[C@H]1C(=O)O (stereo partly shown) = 0.706
C[C@@H](O)[C@H]1C(=O)N2C(C(=O)O)=C(S[C@@H]3CN[C@H](C(=O)N(C)C)C3)[C@H](C)[C@H]12 = -0.645

Now for a further compound.
Look at this compound and give its reported WT abs Fi 1 (absolute fitness of wild type, Replicate 1). `O=C(O)[C@H]1/C(=C/CO)O[C@@H]2CC(=O)N21`
-0.544
